# Test system: rat aorta
# assay summary: inhibition of calcium-induced contraction (change in tension) of spirally cut strips of rat aorta in K+ 45 mM saline
# Type: cell-based
# test parameters: 0.75 h, 45 millimolar potassium, 2 millimolar calcium, 45 minutes, read-out: IC50 (molar concentration required to reduce the response by 50%)
pIC50: −log10 of the molar value.
Label rule, in plain words: pIC50 of 8 and up is condition met, under 8 is condition not met.

Example entries begin here.
CCOC(=O)C1=C(COCCNc2ncnc3[nH]cnc23)NC(C)=C(C(=O)OC)C1c1ccccc1Cl (stereo not drawn) [Example 16] : condition not met
CCOC(=O)C1=C(COCCNc2cc(Cl)ncn2)NC(C)=C(C(=O)OC)C1c1cccc(Cl)c1Cl (stereo not drawn) [Example 53] : condition not met
CCOC(=O)C1=C(COCCNC2=NC(C)(C)C(=O)N2)NC(C)=C(C(=O)OC)C1c1cccc(Cl)c1Cl (stereo not drawn) [Example 38] : condition not met
CCOC(=O)C1=C(COCCNc2ccc(S(N)(=O)=O)cn2)NC(C)=C(C(=O)OC)C1c1ccccc1Cl (stereo not drawn) [Example 35] : condition met
CCOC(=O)C1=C(COCCNc2nc(C)cc(=O)[nH]2)NC(C)=C(C(=O)OC)C1c1cccc(C(F)(F)F)c1Cl (stereo not drawn) [Example 61] : condition met
CCOC(=O)C1=C(COCCNc2cc(NC)ncn2)NC(C)=C(C(=O)OC)C1c1cccc(Cl)c1Cl (stereo not drawn) [Example 83] : condition met

Please tell me: is the molecule CCOC(=O)C1=C(COCCNc2cc(OC)ncn2)NC(C)=C(C(=O)OC)C1c1cccc(Cl)c1Cl (stereo not drawn) [Example 54] at or over 8 in terms of pIC50? condition met

Please tell me: is the molecule CCOC(=O)C1=C(COCCNc2nccnc2NC)NC(C)=C(C(=O)OC)C1c1cccc(Cl)c1Cl (stereo not drawn) [Example 84] at or over 8 in terms of pIC50? condition met

* * *

# Tested on: rat aorta
# assay summary: inhibition of calcium-induced contraction (change in tension) of spirally cut strips of rat aorta in K+ 45 mM saline
# Type: cell-based
# test parameters: 0.75 h, 45 millimolar potassium, 2 millimolar calcium, 45 minutes, read-out: IC50 (molar concentration required to reduce the response by 50%)
parameter measured: IC50
Please state the value followed by its unit.

CCOC(=O)C1=C(COCCNc2nc3cc(OC)c(OC)cc3c(=O)[nH]2)NC(C)=C(C(=O)OC)C1c1ccccc1Cl (stereo not shown) : 13.1 nM

Note: attention shifts to another entry.
Return reported IC50; argument: CCOC(=O)C1=C(COCCNc2nc3ccccc3s2)NC(C)=C(C(=O)OC)C1c1ccccc1Cl (stereo not shown) 10 nM

* * *

# System: rat aorta
# assay summary: inhibition of calcium-induced contraction (change in tension) of spirally cut strips of rat aorta in K+ 45 mM saline
# Format: cell-based
# test parameters: 0.75 h, 45 millimolar potassium, 2 millimolar calcium, 45 minutes, read-out: IC50 (molar concentration required to reduce the response by 50%)
parameter measured: IC50 (nM)
Please give a number only; it is taken to be in nM.

Known IC50 results, listed for orientation:
CCOC(=O)C1=C(COCCNc2cc(=O)[nH]cn2)NC(C)=C(C(=O)OC)C1c1ccccc1Cl (centres unmarked) : 10
CCOC(=O)C1=C(COCCNc2nccs2)NC(C)=C(C(=O)OC)C1c1ccccc1Cl (centres unmarked) : 10
CCOC(=O)C1=C(COCCNc2cncc(Cl)n2)NC(C)=C(C(=O)OC)C1c1cccc(Cl)c1Cl (centres unmarked) : 6.02

Return reported IC50; argument: CCOC(=O)C1=C(COCCNc2nc(N)n(C)n2)NC(C)=C(C(=O)OC)C1c1ccccc1Cl (centres unmarked) 8.12

Return reported IC50; argument: CCOC(=O)C1=C(COCCNC2=NC(=O)CS2)NC(C)=C(C(=O)OC)C1c1cccc(C(F)(F)F)c1Cl (centres unmarked) 7.08
